test system: HT-29; experiment: NCI tumour cell line growth inhibition, 48 h
The source made the active and inactive calls. No stated cut-off is given here; in the data, active = GI50 up to about 1.1 µM and inactive = higher.
Classes used: y for active, n for inactive

• COc1ccc(N/N=C2\CCOc3ccc(C)cc3C2=O)cc1 = n
• CC1(C)OCC=CCO1 = n
• CC(=O)C1=C(C)N(c2ccc(C)cc2)C2(O)C3=C(C(=O)c4ccccc4C3=O)C(O)=CC12Cl (centres undefined) = n
• CC(=O)NNc1nc(C)c(C(/C=C/c2ccc([N+](=O)[O-])cc2)=N/NC(N)=S)s1 = n
• CCOC(=O)c1cc2cc(C)cc(C(=O)c3ccc([N+](=O)[O-])cc3)c2[nH]1 = n
• CNC(=O)CN(CC(=O)O)C(=O)NC = n
• O=C(N/C(=C\c1cc(Cl)ccc1Cl)c1nc2ccccc2[nH]1)c1ccccc1 = n
• S=C1C=C(c2ccccc2)Sc2ccccc2N1 = n
• O=S(=O)(O)c1ccc2c(/N=N/c3ccccc3Cl)c(O)ccc2c1 = n
• N#Cc1ccc([N+](=O)[O-])cc1NC(N)=S = n
• O=c1oc2ccc([N+](=O)[O-])cc2cc1-c1csc(-c2ccccc2)n1 = n
• CC(C)/C(Cl)=N\OC(NC(=O)P(=O)(c1ccccc1)c1ccccc1)(C(F)(F)F)C(F)(F)F = n
• O=C(Nc1cccc(F)c1)c1cc2ccc(O)cc2o/c1=N\c1cccc(F)c1 = n
• CCOC(=O)Nc1cc2c(c(N)n1)N=C(c1ccccc1)[C@H](C)N2 [MIVOBULIN ISETHIONATE] = y
• CCc1cc(Cc2cc(CC)c(NC(=O)C(=O)CC(=O)c3sc(-c4cccnc4)nc3C)c(CC)c2)cc(CC)c1NC(=O)C(=O)CC(=O)c1sc(-c2cccnc2)nc1C = n
• Cc1n[nH]c(=O)n1N=C(c1ccccc1)c1ccccc1 = n
• Cc1ccc2c(CC(=O)O)cc(=O)oc2c1 = n
• C=CCn1c(=O)ccn(/C(=C/C(=O)OCC)C(=O)OCC)c1=O = n
• Cc1ccc(C)c(NC2=NC(=O)C(CC(=O)Nc3ccc(Cl)cc3Cl)S2)c1 (centres undefined) = n
• O=C(COc1ccc(OCC(=O)NNC2=NC(c3cc(F)c(Cl)cc3Cl)CS2)c(Cl)c1)NNC1=NC(c2cc(F)c(Cl)cc2Cl)CS1 (centres undefined) = n
• O=C(Nc1ccccc1)c1cc(S(=O)(=O)NC2=Nc3ccc(Cl)cc3C(c3ccccc3)N2)c(SSc2cc(Cl)c(C(=O)Nc3ccccc3)cc2S(=O)(=O)NC2=Nc3ccc(Cl)cc3C(c3ccccc3)N2)cc1Cl (centres undefined) = n
• COc1cc2c(cc1OC)c1c(OC)c(OC)cc3c1c1c2sc(=S)n1CC3 = n
• CC1(c2ccc(F)cc2)C(C#N)C(=O)NC(=O)C1C#N (centres undefined) = n
• CCn1cnnc1-c1nsc2ccccc12 = n
• CC(C)(C)[Si](C)(C)O[C@@H](C(=O)OC1C=CCCC1)[C@@H](NC(=O)c1ccccc1)c1ccccc1 (some centres undefined) = n
• COC1=CC(=O)c2c(cc(COP(=O)(N(C)CCBr)N(C)CCBr)n2C)C1=O = y
• CC(=O)O[C@H]1C(=O)[C@@]2(C)[C@H]([C@H](OC(=O)c3ccccc3)[C@]3(O)C[C@H](OC(=O)[C@H](O)[C@@H](NC(=O)c4cccc(N=[N+]=[N-])c4)c4ccccc4)C(C)=C1C3(C)C)[C@]1(OC(C)=O)CO[C@@H]1C[C@@H]2O = y
• O=C1CC(C(COCc2ccccc2)OCc2ccccc2)CC(=O)N1 (centres undefined) = n
• CC1(C)C[C@H](O)[C@H](O)[C@]23C(=O)O[C@H](O)[C@H]2C(C=O)=CC[C@@H]13 = n
